B1: TRIM9 (parent)
chain: PRNSCITCPQCHRSLILDDRGLRG

variants of: B1; assay: protein stability index of a GFP-peptide fusion (GPS, HEK-293T) (PSI 1-6); higher = more stable; conditions: c terminus: a fixed tail appended;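 also: lentivirally expressed fusions sorted by FACS into six bins by GFP to DsRed ratio, PSI derived from sequencing read proportions per bin multiplied by bin number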
experimental.readout: protein stability index

Recorded results for 2 variants are shown here.
PRNSCITCPQCQRSLILDDRGLRG [H12Q]    1.96
PRNSCITCPQMHRSLILDDRGLRG [C11M]    1.97

// query # get_value(readout='protein stability index', item= PRNSCITCPPCHRSLILDDRGLRG [Q10P] )
// result 2.02
